biological target: Ephrin type-A receptor 4 (Homo sapiens); conditions: at 1 µM
Description: GSK_PKIS: EPHA4 mean inhibition at 1 uM [Nanosyn]
Would you mind labelling by inhibition? At or over 10% is Yes, under is No.

Look over these answered cases.
CCn1cc(-c2ccnc3[nH]ccc23)c(-c2cccc(NC(=O)Nc3ccc(OCc4ccccc4)cc3)c2)n1; No
CCn1c(-c2nonc2N)nc2cnc(Oc3cccc(NC(=O)c4ccc(N(C)C)cc4)c3)cc21; No
COc1ccc(-c2cc3c(N)ncnc3o2)cc1; No
Fc1ccc(-c2cc(-c3c[nH]nc3-c3ccccn3)ccn2)cc1; Yes
COc1ccc2c(-c3ccnc(Nc4cccc(OC(F)(F)F)c4)n3)cnn2n1; Yes

Prompt line: Kindly determine if inhibition recorded for `CCNC(=O)O[C@H]1CN[C@H](C#Cc2cc3ncnc(Nc4ccc(OCc5cccc(F)c5)c(Cl)c4)c3s2)C1` is above or exactly 10%.
Response line: No

Prompt line: Kindly determine if inhibition recorded for `COC(=O)Nc1nc2ccc(Oc3ccc(NC(=O)Nc4cccc(Cl)c4)cc3)cc2[nH]1` is above or exactly 10%.
Response line: Yes

---

I'd appreciate it if you could supply inhibition values for the items below.
molecular target: Protein-tyrosine kinase 6 (Homo sapiens) (UniProt Q13882); details: at 0.1 µM
Sequence (Q13882 whole entry, looked up): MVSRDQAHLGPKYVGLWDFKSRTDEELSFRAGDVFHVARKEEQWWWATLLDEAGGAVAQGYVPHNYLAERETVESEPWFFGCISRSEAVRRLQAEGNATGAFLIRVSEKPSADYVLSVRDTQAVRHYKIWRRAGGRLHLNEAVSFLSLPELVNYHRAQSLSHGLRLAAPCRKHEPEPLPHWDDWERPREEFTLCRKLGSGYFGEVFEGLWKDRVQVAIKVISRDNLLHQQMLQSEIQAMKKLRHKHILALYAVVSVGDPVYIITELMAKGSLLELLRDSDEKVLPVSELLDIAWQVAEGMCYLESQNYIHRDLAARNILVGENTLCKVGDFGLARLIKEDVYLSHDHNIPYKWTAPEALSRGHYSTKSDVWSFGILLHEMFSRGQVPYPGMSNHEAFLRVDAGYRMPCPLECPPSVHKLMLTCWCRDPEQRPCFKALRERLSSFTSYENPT
Description: GSK_PKIS: BRK mean inhibition at 0.1 uM [Nanosyn]
Answers are plain numbers, in %.

Examples with answers:
Cc1ccc2c(-c3ccnc(Nc4ccccc4)n3)c(-c3ccc(F)cc3)nn2n1; 15.2
Nc1ncc(-c2cccc(S(N)(=O)=O)c2)c2scc(-c3ccc(F)c(Cl)c3)c12; 7.08
CCc1nn2ncccc2c1-c1ccnc(NC2CC2)n1; -0.52

Please give inhibition, item by item, for the list that follows.
1. Fc1ccc(-c2nn3ncccc3c2-c2ccnc(Nc3ccc4c(c3)OCCO4)n2)cc1
2. NC(=O)c1sc(-n2cnc3ccc(C(F)(F)F)cc32)cc1OCc1ccccc1Br
3. CC(C)(CO)CNC(=O)c1ccc2c(c1)/C(=N/Nc1ccc(S(N)(=O)=O)cc1)C(=O)N2

Response line:
17.1
3.76
-2.27

Prompt line: Reported inhibition, molecule `COc1cccc(-c2c[nH]c3c(N/N=C/c4ccncc4)ncnc23)c1` : ____
Response line: 2.51

---

molecular target: Protein kinase C alpha type (Homo sapiens); conditions: at 0.1 µM;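 also: each value is the mean percent inhibition of PKC-alpha kinase activity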
Would you mind labelling by inhibition? At or over 1% is 1.0, under is 0.0.

Look over these answered cases.
CCn1cc(-c2ccnc3[nH]ccc23)c(-c2cccc(NC(=O)Nc3ccc(OCc4ccccc4)cc3)c2)n1; 1.0
CCNC(=O)O[C@H]1CN[C@H](C#Cc2cc3ncnc(Nc4ccc(OCc5cccc(F)c5)c(Cl)c4)c3s2)C1; 0.0

Prompt line: Kindly determine if inhibition recorded for `NC(=O)c1sc(-n2cnc3ccc(C(F)(F)F)cc32)cc1OCc1ccccc1Br` is above or exactly 1%.
Response line: 0.0

Prompt line: Kindly determine if inhibition recorded for `Clc1ccc(-c2nn3ncccc3c2-c2ccnc(Nc3ccccc3)n2)cc1` is above or exactly 1%.
Response line: 1.0

Prompt line: Kindly determine if inhibition recorded for `CCc1nn2ncccc2c1-c1ccnc(NC2CC2)n1` is above or exactly 1%.
Response line: 0.0

---

molecular target: Tyrosine-protein kinase JAK1 (Homo sapiens); conditions: at 1 µM;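 also: each value is a mean inhibition of JAK1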
MEASURED PROPERTY: inhibition (%)
Answers are plain numbers, in %.

Examples with answers:
[O-][S+]1CCN(Cc2ccc(-c3ccc4ncnc(Nc5ccc(OCc6cccc(F)c6)c(Cl)c5)c4c3)o2)CC1; 9.08
CCn1c(-c2nonc2N)nc2ccccc21; -0.06
CCn1c(-c2nonc2N)nc2c(C#CC(C)(C)O)ncc(OC3CCNCC3)c21; 3.51
Cc1cccc2c1NC(=O)/C2=N\Nc1ccc(S(N)(=O)=O)cc1; 0.61
COc1cccc(-c2c[nH]c3c(N/N=C/c4ccncc4)ncnc23)c1; 15.3
COc1ccc(-c2oc3ncnc(N)c3c2-c2ccc(NC(=O)Nc3cc(C(F)(F)F)ccc3F)cc2)cc1; 43.3
CC(C)(CO)CNC(=O)c1ccc2c(c1)/C(=N/Nc1ccc(S(N)(=O)=O)cc1)C(=O)N2; 2.13

Continue with the next compound.
Prompt line: Reported inhibition, compound `CNC(=O)c1cc(-c2ccc(F)cc2)cc(-c2ccc(S(=O)(=O)N3CCCC3)cc2)c1N` : ____
Response line: 1.74
